Parameter: TGI. Scope: all listed entries.
# Test system: MDA-MB-231 breast
# assay: NCI tumour cell line growth inhibition, 48 h
Enter your answer as a number in µM; do not include the unit.

Examples with their reported TGI follow.
C=C1C(=O)OC2C3C(=C)[C@@H](OC(C)=O)CC3C(C)=CC(OC(=O)C(C)(OC(C)=O)C(C)OC(C)=O)[C@@H]12 (stereo not given in full); 32.7
COC(=O)C1=C(C)NC(C)=C(C(=O)OC)C1c1ccc(N=O)cc1; 25.2

Now let's try a different one.
MDA-MB-231 breast assay, compound N#CC(C#N)N=Nc1ccc(-c2nc3ccccc3o2)cc1 , recorded TGI = 61.7
